Would you kindly list IC20 for each of these compounds?
Test system: SK-N-Be2 cells
Assay: Cell viability assay (CellTiterGlo) in SK-N-Be2 cells
Assay type: cell-based, human
Conditions: SK-N-Be2 cells; determined empirically
Answers are plain numbers, in µM.

Study these solved cases before continuing.
# compound, u, IC20
records = [
    ("CC1(C)C=Cc2c(c3c(c4c(=O)c(-c5ccc(O)c(O)c5)coc24)OC(C)(C)CC3)O1", "µM", 10),
    ("CN(C)c1ccc2nc3ccc(N)cc3[s+]c2c1.[Cl-]", "µM", 1),
    ("CO[C@H]1/C=C\\C=C(/C)C(=O)NC2=CC(=O)C(N)=C(C[C@@H](C)C[C@H](OC)[C@H](O)[C@@H](C)/C=C(\\C)[C@@H]1OC(N)=O)C2=O", "µM", 2.5),
    ("CC(=O)[C@@]1(O)[C@H](C)C[C@H]2[C@@H]3C=C(C)C4=Cc5c(cnn5-c5ccccc5)C[C@]4(C)[C@H]3[C@@H](O)C[C@@]21C", "µM", 7.5),
    ("OC(c1cc(-c2ccc(C(F)(F)F)cc2)nc(C(F)(F)F)c1)C1CCCCN1 (stereo not drawn)", "µM", 5),
]

Reported IC20 ( `c1ccc(-c2cccc(-c3ccccn3)n2)nc1` ) = 3

FYI, the data here is from patent US20220119399A1.
